Target: T1, TNFR1 (Homo sapiens, UniProt P19438)
T1 chain: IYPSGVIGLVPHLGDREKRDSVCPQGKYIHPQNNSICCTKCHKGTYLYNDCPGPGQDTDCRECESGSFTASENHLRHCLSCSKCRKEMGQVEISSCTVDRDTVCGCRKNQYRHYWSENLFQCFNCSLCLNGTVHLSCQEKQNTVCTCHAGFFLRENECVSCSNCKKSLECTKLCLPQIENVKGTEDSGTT
Assay: yeast display SC50
Give measured apparent Kd (screen) for each item. Keep answers brief.
Answers are plain numbers, in nM.

Q48N (designed binder) MTLQELLREEALRRAEAEAFRYALELLAEKFPEQKEYLLDLAEEIESNIRSLSGVDVEDVRKFLDKEWAWVKELLAEHPAELAEVEAARAARLAELRAEVEAKVAA    0.49
F31A (designed binder) MTLQELLREEALRRAEAEAFRYALELLAEKAPEQKEYLLDLAEEIESQIRSLSGVDVEDVRKFLDKEWAWVKELLAEHPAELAEVEAARAARLAELRAEVEAKVAA    0.49

Ask | Which apparent Kd (screen) reading was recorded for the binder L26T (designed binder) MTLQELLREEALRRAEAEAFRYALETLAEKFPEQKEYLLDLAEEIESQIRSLSGVDVEDVRKFLDKEWAWVKELLAEHPAELAEVEAARAARLAELRAEVEAKVAA ?
Reply | 0.49
